Biological target: human PPAR alpha (Homo sapiens, UniProt Q07869)
Sequence (Q07869 239-466 limits assumed): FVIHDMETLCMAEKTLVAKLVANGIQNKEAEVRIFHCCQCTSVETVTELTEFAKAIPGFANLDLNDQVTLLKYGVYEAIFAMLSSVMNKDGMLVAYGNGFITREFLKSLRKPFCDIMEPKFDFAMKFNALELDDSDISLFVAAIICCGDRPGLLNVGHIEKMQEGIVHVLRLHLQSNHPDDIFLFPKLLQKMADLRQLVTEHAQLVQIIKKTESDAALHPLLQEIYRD
Assay: PPAR transient transfection (transactivation) assay in CV-1 cells, hPPAR alpha
Conditions: PPAR LBD-GAL4 chimera, SPAP reporter, 24 h with compound, read-out: human αEC50
quantity-kind: EC50 (µM)

smiles-code: Cc1nc(-c2ccccc2)sc1C(=O)NCc1ccc(OC(C)(C)C(=O)O)cc1
units-of-measure: µM
EC50: 0.122

a. Cc1nc(-c2ccc(C(C)(C)C)cc2)sc1C(=O)NCc1ccc(OC(C)(C)C(=O)O)cc1
b. CCc1ccc(-c2nc(C)c(C(=O)NCc3ccc(OC(C)(C)C(=O)O)cc3)s2)cc1
q: // select label with min value of measured EC50 from [ a , b ] Output the label that corresponds to your choice.
a: b

I. Cc1nc(-c2ccc(Br)cc2)sc1C(=O)NCc1ccc(OC(C)(C)C(=O)O)cc1
II. Cc1nc(-c2ccc(C(F)(F)F)cc2)sc1C(=O)NCCc1ccc(OC(C)(C)C(=O)O)cc1
III. Cc1nc(-c2ccc(F)cc2)sc1C(=O)NCc1ccc(OC(C)(C)C(=O)O)cc1
IV. Cc1nc(-c2ccc(C(C)C)cc2)sc1C(=O)NCc1ccc(OC(C)(C)C(=O)O)cc1
V. Cc1nc(-c2ccc(Cl)c(Cl)c2)sc1C(=O)NCc1ccc(OC(C)(C)C(=O)O)cc1
q: Descending sort on EC50 required. Use the labels to give the requested order.
a: II, III, V, I, IV
(II: 0.108 µM, III: 0.044 µM, V: 0.028 µM, I: 0.01 µM, IV: 0.001 µM)

Origin of measurements: patent US6518290B1
